test system: SF-539 CNS; assay: NCI-60 one-dose screen, 48 h (100 = growth as untreated, 0 = no growth, -100 = all killed); details: 10 µM unless noted
About 83,000 compounds went through this panel and 20% of them were active in at least one assay; those are over-represented in the sample as a whole.
measure: growth (%)
Lab book: enter the figure in %, no units written.

compound	unit.string	growth
O=C(CCCCCCC(=O)Nc1ccc(N(CCCl)CCCl)cc1)NO	%	31.1
COc1cc(NC(C)CCCNC2CN3CCC2CC3)c2ncccc2c1 (stereo not given)	%	82.3
CC(=O)O[C@H](C[C@H](C(C)C)N(C)C(=O)[C@@H](NC(=O)[C@H]1CCCCN1C)C(C)C)c1nc(C(=O)N[C@@H](Cc2ccccc2)C[C@H](C)C(=O)O)c(CCOCc2ccccc2)s1	%	-31.5
Clc1cccc(N2COOC3(OOC2)C2CC4CC(C2)CC3C4)c1	%	73.3

In the following, a different compound is considered.
Tell me its growth given CCCOC(=O)N[C@H]1CCc2c(Br)c(OC)c(OC)c(OC)c2-c2ccc(SC)c(=O)cc21 as the entry.
0.697

###

system: RPMI-8226 leukemia; assay: NCI-60 one-dose screen, 48 h; settings: 10 µM unless noted
This is part of a sample that, as a whole, favours compounds with a hit. Of some 83,000 tested, about 20% had one in any assay. The source made the active and inactive calls. Rule for the calls: active = growth percent below 10; inactive = the rest.
Respond only with the outcome that fits, drawn from T = active, F = inactive

Known results for compounds:
chem.smiles	system	assigned.category
COc1cc(/C=C\c2cc(OC)c(OC)c(OC)c2)cc(NS(=O)(=O)c2cccc(Cl)c2)c1OC	RPMI-8226 leukemia	F
COc1cc([C@@H]2c3cc4c(cc3[C@H](OC(C)=O)[C@H]3COC(=O)[C@H]23)OCO4)cc(OC)c1OC	RPMI-8226 leukemia	F

What outcome does the record of this test show for COc1cc2c(cc1OCCCn1c(-c3ccccn3)nc3ccccc31)N=C[C@@H]1CCCN1C2=O ?
T

Test call, this compound: COc1ccc(O)c(CNC(=O)CN2CCCC2=O)c1
F

What did this assay record as the result for CC[CH2][Sn]([Cl])([Cl])[CH2]CC ?
F

###

system: LOX IMVI melanoma; assay: NCI-60 one-dose screen, 48 h (100 = growth as untreated, 0 = no growth, -100 = all killed); details: 10 µM unless noted
About 83,000 compounds went through this panel and 20% of them were active in at least one assay; those are over-represented in the sample as a whole.
measure: growth (%)
Report as a plain number; the unit % is understood.

compound	measure	unit.string	observed.result
C[N+](C)(C)Cc1cc(Cl)ccc1O	growth	%	99
COc1ccc2c(c1)c(-c1nc(-c3cn(C)c4ncccc34)cs1)cn2CCCCN1CCCCC1	growth	%	-78
c1cnc2[nH]cc(-c3csc(-c4cn(CCCCN5CCOCC5)c5ccccc45)n3)c2c1	growth	%	20.8
O=C(O)C(Cl)(Cl)C(F)(F)F	growth	%	106
CCn1cnc2c(Nc3cccc(Cl)c3)nc(N[C@@H]3CCCC[C@@H]3N)nc21	growth	%	-8.41

For LOX IMVI melanoma, give the measured growth of the entry Nc1nc([Se])c2ncn(C3OC(CO)C(O)C3O)c2n1 (centres undefined)
10.1

Enter measured growth, system LOX IMVI melanoma, for the compound shown: CC(=O)O[C@H](C[C@H](C(C)C)N(C)C(=O)[C@@H](NC(=O)[C@H]1CCCCN1C)C(C)C)c1nc(C(=O)N[C@@H](Cc2ccccc2)C[C@H](C)C(=O)O)c(CCOCc2ccccc2)s1
11.8

Recall the reported growth of Cn1cc(C2=C(c3cn(C4CCN(Cc5ccccn5)CC4)c4ccccc34)C(=O)NC2=O)c2ccccc21 when tested on LOX IMVI melanoma.
48.5

Would you please give the reported growth of CC(=O)O[C@H](C[C@H](C(C)C)N(C)C(=O)[C@@H](NC(=O)[C@H]1CCCCN1C)C(C)C)c1nc(C(=O)N[C@@H](Cc2ccccc2)C[C@H](C)C(=O)O)c(C(C)C)s1 with LOX IMVI melanoma?
10.5

###

test system: NCI-H460 lung; experiment: NCI-60 one-dose screen, 48 h (100 = growth as untreated, 0 = no growth, -100 = all killed); settings: 10 µM unless noted
About 83,000 compounds went through this panel and 20% of them were active in at least one assay; those are over-represented in the sample as a whole.
measure: growth (%)
Hi! Could you send only the number? It should be in %, unit omitted.

As a guide, the following entries are already answered.
molecule	system	growth [%]
CO[C@H]1CC[C@@]2(C)C(=CC[C@@H]3[C@@H]2CC[C@]2(C)C(=O)C(=O)C[C@@H]32)C1	NCI-H460 lung	102
COC(=O)[C@@H](C)C[C@H](Cc1ccccc1)NC(=O)c1csc([C@@H](C[C@H](C(C)C)N(C)C(=O)[C@@H](NC(=O)[C@H]2CCCN2C)C2CC2)OC(C)=O)n1	NCI-H460 lung	3.65
COc1cc(/C=N/C2=C(C#N)C(c3ccco3)c3c(c4cc(C)ccc4oc3=O)O2)cc(OC)c1OC (stereo unspecified)	NCI-H460 lung	103
CCOc1ccc(/C=C/[N+](=O)[O-])cc1	NCI-H460 lung	98.2
CC[C@H](C)[C@H](NC(=O)C12CC(NC(C)=O)(C1)C2)C(=O)N(C)[C@H](C[C@@H](OC(C)=O)c1nc(C(=O)N[C@@H](Cc2ccccc2)C[C@H](C)C(=O)OC)cs1)C(C)C	NCI-H460 lung	3.12
CNC(=O)Oc1cccc(C(F)(F)F)c1	NCI-H460 lung	114
Cn1cc(C=O)c2nccnc21	NCI-H460 lung	104
CC(C)CCC(=O)O[C@H]1CC[C@H]2[C@@H]3CCC4=CC(=O)CC[C@]4(C)[C@H]3CC[C@]12C	NCI-H460 lung	98.7
CC(=O)Oc1ccccc1C(=O)NCCC[Se]C#N	NCI-H460 lung	1.89
COP(=S)(N1CC1)N1CC1	NCI-H460 lung	107

Return reported growth. Input molecule: CC12CCC(O)CC1=CCC1C2CCC2(C)C(O)CCC12 (stereo unspecified)
101

Fill in growth for record O=C1C2C(C(=O)[N]1[Hg][c]1cccs1)C1(Cl)C(Cl)=C(Cl)C2(Cl)C1(Cl)Cl (stereo unspecified)
52.7

Give reported growth value for COc1cccc2c1c(C(=O)C(=O)Nc1cc(C)no1)cn2Cc1ccc(F)cc1
71.3

Answer with the recorded growth for the molecule listed here: CCN(CCO)C(Cc1ccccc1)c1ccccc1 (stereo unspecified)
104

###

Below, each entry is listed with its recorded growth.
test system: OVCAR-5 ovarian; test: NCI-60 one-dose screen, 48 h (100 = growth as untreated, 0 = no growth, -100 = all killed); conditions: 10 µM unless noted
The panel holds about 83,000 compounds, 20% with a hit somewhere; the sample as a whole holds those more often. Active and inactive are the calls of the source. How the source made its calls: active means growth percent below 10; inactive means the rest.

For orientation, consider the following solved cases.
compound	system	growth
C=C(C)[C@@]12OC3(/C=C/C=C/CCCCC)O[C@@H]1[C@@H]1[C@@H]4O[C@]4(CO)[C@@H](O)[C@]4(O)C(=O)C(C)=C[C@H]4[C@@]1(O3)[C@H](C)[C@H]2OC(=O)c1ccccc1	OVCAR-5 ovarian	107% (inactive)
CCOC(=O)[C@@H](C)C[C@H](Cc1ccccc1)NC(=O)c1csc([C@@H](C[C@H](C(C)C)N(C)C(=O)CNC(=O)[C@H]2CCCCN2C)OC(C)=O)n1	OVCAR-5 ovarian	32.1% (inactive)
CCCC(=O)O[C@@H]1C[C@H]2C[C@@H](O[C@@H]3O[C@@H](C)[C@@H](O)[C@@H](O)[C@H]3OC)C[C@@H](C[C@@H](C)/C=C/C=C\C[C@@H]3O[C@@H](C[C@@H]3C)[C@@H](O)C[C@H]3C[C@@]1(O)C(=O)O3)O2	OVCAR-5 ovarian	74.5% (inactive)
COC(=O)[C@@]1(C)CC[C@]2(C)CC[C@]3(C)C4=CC=C5C(=CC(=O)C(O)=C5C)[C@]4(C)CC[C@@]3(C)[C@@H]2C1	OVCAR-5 ovarian	-93.1% (active)
O=[N+]([O-])c1ccc(OP(=O)(CCl)N(CCCl)CCCl)cc1 (centres undefined)	OVCAR-5 ovarian	99.6% (inactive)

Fetch value of growth on OVCAR-5 ovarian for COc1cccc2c1c(C(=O)c1ccco1)cn2Cc1ccc(F)cc1 .
122% (inactive)

Tell me growth of COC(=O)[C@@H](C)C[C@H](Cc1ccccc1)NC(=O)c1nc([C@@H](C[C@H](C(C)C)N(C)C(=O)[C@@H](NC(=O)[C@H]2CCCCN2C)C(C)C)OC(C)=O)sc1C when tested on OVCAR-5 ovarian.
41.4% (inactive)

Look up and report measured growth (OVCAR-5 ovarian) for the following compound: Nc1cc2nc3ccccc3nc2cc1N
99.9% (inactive)

State growth (OVCAR-5 ovarian) of C=C1C(=O)O[C@H]2[C@H]1CC/C(COC(=O)C(=O)c1cn(Cc3ccccc3)c3ccccc13)=C\CC[C@@]1(C)O[C@@H]21 .
-32.6% (active)

Tell me growth of Cc1sc2c(c1C)C(c1ccc(Cl)cc1)=N[C@@H](CC(=O)OC(C)(C)C)c1nnc(C)n1-2 when tested on OVCAR-5 ovarian.
45.4% (inactive)

Print OVCAR-5 ovarian growth for O=C(O)c1ccc([S-])cc1.[Au+].c1ccc(CN2[CH-]N(Cc3ccccc3)C(c3ccccc3)=C2c2ccccc2)cc1 .
-14.2% (active)

State measured growth of the compound COc1cc2c(c(OC)c1OC)-c1ccc([O-])c(=O)cc1[C@@H](NC(C)=O)CC2.COc1cc2c(c(OC)c1OC)-c1ccc([O-])c(=O)cc1[C@@H](NC(C)=O)CC2.[Cu+2] with OVCAR-5 ovarian.
54.3% (inactive)

Specify growth for COc1ccc(/C=C\c2cc(OC)c(OC)c(OC)c2)cc1NS(=O)(=O)c1ccc(Cl)cc1 , system OVCAR-5 ovarian.
83.4% (inactive)

Recall the reported growth of COC(=O)[C@@H](C)C[C@H](Cc1ccccc1)NC(=O)c1nc([C@@H](C[C@H](C(C)C)N(C)C(=O)[C@@H](NC(=O)[C@H]2CCCCN2C)C(C)C)OC(C)=O)sc1C(C)C when tested on OVCAR-5 ovarian.
27.1% (inactive)
